For each record, write down the corresponding IC50.
Tested on: MCP-1 production
Experiment: CRS toxicity evaluation system using CAR-T cells: MCP-1
Type: cell-based, human
Conditions: Homo sapiens, Monocyte; CAR-T cells, target cells and monocytes, 72 hours
Counter-ions that a name gives are not always drawn.
For clarity, give the value followed by its unit.

C[C@]12C=CC(=O)C=C1CC[C@@H]1[C@@H]2[C@@H](O)C[C@@]2(C)[C@H]1CC[C@]2(O)C(=O)CO	71.8 µM

Field: next molecule
input: Which IC50 is reported with MCP-1 production for this entry: CCOC(=O)[C@H](Cc1ccccc1)NC(=O)c1cc(Cl)c(OCCN2CCN(C)CC2)c(Cl)c1O [JTE-607, dihydrochloride] ?
output: 0.0376 µM

Where do these numbers come from? They come from patent US11744830B2.
